assay-system: K-Ras G12D (Homo sapiens, UniProt P01116, G12D)
Construct: made in house; host or cells: E. coli, e.g. BL21 (DE3)
Sequence (P01116 1-188 isoform P01116-2 G12D): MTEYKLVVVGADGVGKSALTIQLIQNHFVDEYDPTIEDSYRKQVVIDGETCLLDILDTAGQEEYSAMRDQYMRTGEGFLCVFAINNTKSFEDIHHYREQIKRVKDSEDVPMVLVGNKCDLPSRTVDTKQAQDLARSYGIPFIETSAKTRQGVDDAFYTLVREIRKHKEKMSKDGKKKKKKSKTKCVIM
test-protocol: PPI-HTRF assay, K-Ras G12D / SOS1 interaction
Type: biochemical
parameter-measured: IC50

-- ask // lookup IC50 for CN1c2nc(OC[C@@]34CCCN3C[C@H](F)C4)nc3c(F)c(-c4ccc(F)c5sc(N)c(C#N)c45)c(Cl)c(c23)OC2CN(C(=O)C3N[C@H]3C3CC3)CC21 (stereo partly shown)
-- reply < 5 µM

---

assay-system: wildtype K-Ras (Homo sapiens)
Construct: made in house; host or cells: E. coli, e.g. BL21 (DE3)
test-protocol: PPI-HTRF assay, wildtype K-Ras / SOS1 interaction
Assay type: biochemical
condition-context: HTRF, K-Ras wt; read-out: PPI-HTRF-5 nM (K-Ras wt IC50)
We begin with a simple list: items and their reported IC50.

CN1c2nc(OC[C@@]34CCCN3C[C@H](F)C4)nc3c(F)c(-c4ccc(F)c5sc(N)c(C#N)c45)c(Cl)c(c23)OCC2CN(C(=O)[C@@H]3N[C@H]3C3CC3)CC21 (some centres unmarked) [compound 146] ... < 5 µM
CCN[C@@H]1CC[C@H]2COc3c(Cl)c(-c4ccc(F)c5sc(N)c(C#N)c45)c(F)c4nc(OC[C@@]56CCCN5C[C@H](F)C6)nc(c34)N2C1 [compound 119] ... < 5 µM
N#Cc1c(N)sc2c(F)ccc(-c3c(Cl)c4c5c(nc(OC[C@@]67CCCN6C[C@H](F)C7)nc5c3F)N3C[C@H](N)C[C@H]3CO4)c12 [compound 195] ... < 5 µM

-- ask // lookup IC50 for COCC1CCC2COc3c(Cl)c(-c4ccc(F)c5sc(N)c(C#N)c45)c(F)c4nc(OCC56CCCN5C[C@H](F)C6)nc(c34)N2C1 (some centres unmarked) [compound 121]
-- reply < 5 µM

-- ask And what about the compound N#Cc1c(N)sc2c(F)ccc(-c3c(Cl)c4c5c(nc(OC[C@@]67CCCN6C[C@H](F)C7)nc5c3F)N(C3CC3)C3COCC3CO4)c12 (some centres unmarked) [compound 125] ?
-- reply < 5 µM

---

assay-system: K-Ras G12V (Homo sapiens, UniProt P01116, G12V)
Construct: made in house; host or cells: E. coli, e.g. BL21 (DE3)
Sequence (P01116 1-188 isoform P01116-2 G12V): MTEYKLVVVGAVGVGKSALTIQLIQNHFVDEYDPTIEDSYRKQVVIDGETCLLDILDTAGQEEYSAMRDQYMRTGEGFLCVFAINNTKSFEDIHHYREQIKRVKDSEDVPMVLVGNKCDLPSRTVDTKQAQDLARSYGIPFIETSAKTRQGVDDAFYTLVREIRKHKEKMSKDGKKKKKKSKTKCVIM
test-protocol: PPI-HTRF assay, K-Ras G12V / SOS1 interaction
Format: biochemical
Excerpt: This assay can be also used to assess a selective inhibition or reduction of signaling output of a mutant Ras protein relative to a wildtype, or relative to a different mutant Ras protein. For example, the equilibrium interaction of wildtype Kras or K-Ras mutant (e.g., wildtype or a mutant thereof) with SOS1 (e.g., hSOS1) can be assessed as a proxy or an indication for a subject compound's ability to bind and inhibit Ras protein. […]
parameter-measured: IC50

-- ask So what's the measured IC50 for this one? CN1c2nc(OC[C@@]34CCCN3C[C@H](F)C4)nc3c(F)c(-c4ccc(F)c5sc(N)c(C#N)c45)c(Cl)c(c23)OC2CN(C(=O)C3N[C@H]3C3CC3)CC21 (stereo partly shown)
-- reply < 5 µM

---

assay-system: K-Ras G12S (Homo sapiens, UniProt P01116, G12S)
Construct: made in house; host or cells: E. coli, e.g. BL21 (DE3)
Sequence (P01116 1-188 isoform P01116-2 G12S): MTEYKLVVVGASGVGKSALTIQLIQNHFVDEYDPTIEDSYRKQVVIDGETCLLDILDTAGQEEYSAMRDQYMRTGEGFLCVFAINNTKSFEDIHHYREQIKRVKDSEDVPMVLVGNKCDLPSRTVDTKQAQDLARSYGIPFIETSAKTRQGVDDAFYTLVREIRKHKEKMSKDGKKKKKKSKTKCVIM
test-protocol: PPI-HTRF assay, K-Ras G12S / SOS1 interaction
Assay type: biochemical
condition-context: read-out: PPI-HTRF-5 nM (K-Ras G12S IC50)
Listed next: entries and their corresponding IC50.

-- ask Name the reported IC50 value associated with the molecule CN1c2nc(OC[C@@]34CCCN3C[C@H](F)C4)nc3c(F)c(-c4ccc(F)c5sc(N)c(C#N)c45)c(Cl)c(c23)OCC2COCC21 (stereo partly drawn)
-- reply < 5 µM

-- ask Further, for CN(C)CCCN1c2nc(OC[C@@]34CCCN3C[C@H](F)C4)nc3c(F)c(-c4ccc(F)c5sc(N)c(C#N)c45)c(Cl)c(c23)OCC2COCC21 (stereo partly drawn) ?
-- reply < 5 µM

---

assay-system: K-Ras G12S (Homo sapiens, UniProt P01116, G12S)
Construct: made in house; host or cells: E. coli, e.g. BL21 (DE3)
test-protocol: PPI-HTRF assay, K-Ras G12S / SOS1 interaction
Format: biochemical
condition-context: read-out: PPI-HTRF-5 nM (K-Ras G12S IC50)
pIC50: −log10 of the molar value.
# reported pIC50; entries follow

N#Cc1c(N)sc2c(F)ccc(-c3c(Cl)c4c5c(nc(OC[C@@]67CCCN6C[C@H](F)C7)nc5c3F)N3C[C@H](O)C[C@@H]3CCO4)c12 ... > 5.30
COC1CCC2COc3c(Cl)c(-c4ccc(F)c5sc(N)c(C#N)c45)c(F)c4nc(OC[C@@]56CCCN5C[C@H](F)C6)nc(c34)N2C1 (stereo partly drawn) ... > 5.30

Now for a further compound.
-- ask Which measured pIC50 value corresponds to CC(=O)N1CC2Oc3c(Cl)c(-c4ccc(F)c5sc(N)c(C#N)c45)c(F)c4nc(OC[C@@]56CCCN5C[C@H](F)C6)nc(c34)N(C)C2C1 (stereo partly drawn) ?
-- reply > 5.30

---

assay-system: wildtype K-Ras (Homo sapiens, UniProt P01116)
Construct: made in house; host or cells: E. coli, e.g. BL21 (DE3)
Sequence (P01116 1-188 isoform P01116-2): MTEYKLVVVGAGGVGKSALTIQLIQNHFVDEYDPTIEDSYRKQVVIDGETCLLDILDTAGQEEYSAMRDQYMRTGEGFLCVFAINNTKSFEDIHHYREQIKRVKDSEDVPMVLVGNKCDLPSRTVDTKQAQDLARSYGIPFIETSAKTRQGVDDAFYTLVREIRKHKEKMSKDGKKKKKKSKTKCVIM
test-protocol: PPI-HTRF assay, wildtype K-Ras / SOS1 interaction
Type: biochemical
condition-context: HTRF, K-Ras wt; read-out: PPI-HTRF-5 nM (K-Ras wt IC50)
parameter-measured: IC50

-- ask Bench note: what IC50 did CN1c2nc(OC[C@@]34CCCN3C[C@H](F)C4)nc3c(F)c(-c4ccc(F)c5sc(N)c(C#N)c45)c(Cl)c(c23)OC2CN(C=O)CC21 (stereo partly drawn) [compound 126] show?
-- reply < 5 µM

-- ask Try this compound too: N#Cc1c(N)sc2c(F)ccc(-c3c(Cl)c4c5c(nc(OC[C@@]67CCCN6C[C@H](F)C7)nc5c3F)N3CC(COC(F)F)CCC3CO4)c12 (stereo partly drawn) [compound 154]
-- reply < 5 µM

-- ask Please do the same for COC[C@H]1C[C@H]2COc3c(Cl)c(-c4ccc(F)c5sc(N)c(C#N)c45)c(F)c4nc(OC[C@@]56CCCN5C[C@H](F)C6)nc(c34)N21 [compound 173] as well.
-- reply < 5 µM

---

assay-system: wildtype K-Ras (Homo sapiens)
Construct: made in house; host or cells: E. coli, e.g. BL21 (DE3)
test-protocol: PPI-HTRF assay, wildtype K-Ras / SOS1 interaction
Assay type: biochemical
condition-context: HTRF, K-Ras wt; read-out: PPI-HTRF-5 nM (K-Ras wt IC50)
Let's look at some compounds and their measured IC50.

CN1c2nc(OC[C@@]34CCCN3C[C@H](F)C4)nc3c(F)c(-c4ccc(F)c5sc(N)c(C#N)c45)c(Cl)c(c23)OCC2COCC21 (stereo partly drawn) ... < 5 µM
N#Cc1c(N)sc2c(F)ccc(-c3c(Cl)c4c5c(nc(OC[C@@]67CCCN6C[C@H](F)C7)nc5c3F)N3CCC(F)(F)CC3CO4)c12 (stereo partly drawn) ... < 5 µM

-- ask What measured IC50 goes with N#Cc1c(N)sc2c(F)ccc(-c3c(Cl)c4c5c(nc(OCC67CCCN6C[C@H](F)C7)nc5c3F)N3CC(C#N)CCC3CO4)c12 (stereo partly drawn) ?
-- reply < 5 µM

-- ask Input N#Cc1c(N)sc2c(F)ccc(-c3c(Cl)c4c5c(nc(OCC67CCCN6C[C@H](F)C7)nc5c3F)N3CCC(O)CC3CO4)c12 (stereo partly drawn)
-- reply < 5 µM

-- ask Repeat for the following compound: N#CCCN1c2nc(OC[C@@]34CCCN3C[C@H](F)C4)nc3c(F)c(-c4ccc(F)c5sc(N)c(C#N)c45)c(Cl)c(c23)OCC2COCC21 (stereo partly drawn)
-- reply < 5 µM

-- ask Next compound up: N#Cc1c(N)sc2c(F)ccc(-c3c(Cl)c4c5c(nc(OC[C@@]67CCCN6C[C@H](F)C7)nc5c3F)N3C(CCCC3C(F)F)CO4)c12 (stereo partly drawn)
-- reply < 5 µM

---

assay-system: K-Ras G12D (Homo sapiens, UniProt P01116, G12D)
Construct: made in house; host or cells: E. coli, e.g. BL21 (DE3)
test-protocol: PPI-HTRF assay, K-Ras G12D / SOS1 interaction
Type: biochemical
condition-context: HTRF, K-Ras G12D; read-out: PPI-HTRF-5 nM (K-Ras G12D IC50)
The compounds listed here are annotated with their IC50.

Example cases with answers are listed next.
CN1c2nc(OC[C@@]34CCCN3C[C@H](F)C4)nc3c(F)c(-c4ccc(F)c5sc(N)c(C#N)c45)c(Cl)c(c23)OC2CNCC21 (stereo partly shown) [compound 214] ... < 5 µM
N#Cc1c(N)sc2c(F)ccc(-c3c(Cl)c4c5c(nc(OCC67CCCN6C[C@H](F)C7)nc5c3F)N3CCC[C@H]3CO4)c12 (stereo partly shown) [compound 159] ... < 5 µM
N#Cc1c(N)sc2c(F)ccc(-c3c(Cl)c4c5c(nc(OC[C@@]67CCCN6C[C@H](F)C7)nc5c3F)N3C[C@@H](N)C[C@H]3CO4)c12 [compound 191] ... < 5 µM

-- ask Would you mind telling me what IC50 value was observed for N#Cc1c(N)sc2c(F)ccc(-c3c(Cl)c4c5c(nc(OC[C@@]67CCCN6C[C@H](F)C7)nc5c3F)N3[C@H](CO4)C[C@@H]3COC(F)F)c12 [compound 210] ?
-- reply > 5 µM

This collection of values is drawn from patent US12059425B2.
